These data points were gathered from the MegaScale stability set (Tsuboyama et al. 2023).

B1: 6NMW (parent)
chain: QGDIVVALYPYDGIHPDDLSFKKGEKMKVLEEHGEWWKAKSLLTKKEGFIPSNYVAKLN

variants of: B1; assay: folding stability dG (cDNA display proteolysis); higher = more stable; details: PBS, room temperature
Category scheme (folding stability dG): class A: < 2 kcal/mol; class B: ≥ 2 kcal/mol and < 3 kcal/mol; class C: ≥ 3 kcal/mol

Query :: For "K28V" , which folding stability dG bin applies?
Result :: class C

Query :: State the class of the variant shown: "E25W"
Result :: class A

Query :: Entry "E31A" belongs to which category?
Result :: class C

Query :: Exam item: assign "V55C" to the correct category.
Result :: class B

Query :: Place this variant in its band: "H15C"
Result :: class C

Query :: Consider "L30G" . To which folding stability dG class does it belong?
Result :: class A

Query :: Category of "L30Y" , please.
Result :: class B
